Data provenance is patent EP1181269B1.

Give inhibition at 100 µM for every item shown.
System: human lung large cell carcinoma, MDR negative (NCI-H460) cells
Run description: 48-hour cellular proliferation assay (sulforhodamine staining, 96-well microtitre format)
Format: cell-based
Condition summary: Homo sapiens, 10^-4M compound, 48 hours in culture, 0% = DMSO control, 100% = trichloroacetic acid-treated well, read-out: NCI-460 % inhibition at 10^-4M
// return numeric value only (unit: %, not printed)

Quick one: inhibition at 100 µM for COc1cc(NS(=O)(=O)c2ccc3c(ccn3C)c2)cc(OC)c1OC [Example 10] ?
100

Now the same for COc1cc(NS(=O)(=O)c2ccc3c(c2)CCN3)cc(OC)c1OC [Example 3]
59.3

Now the same for COc1cc(NS(=O)(=O)c2cn(C)c3ccc([N+](=O)[O-])cc23)cc(OC)c1OC [Example 6]
45.5

Now the same for COc1cc(S(=O)(=O)Oc2ccc3c(ccn3C)c2)cc(OC)c1OC [Example 16]
100

Now the same for COc1cc(NS(=O)(=O)c2cn(C)c3ccc(N)cc23)cc(OC)c1OC [Example 7]
87

Now the same for COc1cc(N(C)S(=O)(=O)c2ccc3c(ccn3C)c2)cc(OC)c1OC [Example 11]
99.9

Now the same for COc1cc(NS(=O)(=O)c2ccc3c(c2)CCN3C)cc(OC)c1OC [Example 5]
96.1

====

System: human lung large cell carcinoma, MDR negative (NCI-H460) cells
Run description: 48-hour cellular proliferation assay (sulforhodamine staining, 96-well microtitre format)
Type: cell-based
Condition summary: Homo sapiens, 10^-4M compound, 48 hours in culture, 0% = DMSO control, 100% = trichloroacetic acid-treated well, read-out: NCI-460 % inhibition at 10^-4M
Readout label: inhibition at 100 µM (%)
// return numeric value only (unit: %, not printed)

Quick one: inhibition at 100 µM for COc1cc(NS(=O)(=O)c2ccc3[nH]ccc3c2)cc(OC)c1OC [Example 9] ?
89.1

Now the same for COc1ccc(S(=O)(=O)Nc2cc(OC)c(OC)c(OC)c2)cc1 [Example 1]
98.5

Now the same for COc1cc(NS(=O)(=O)c2c[nH]c3ccc([N+](=O)[O-])cc23)cc(OC)c1OC [Example 4]
41.7

Now the same for COc1cc(NS(=O)(=O)c2ccc3c(c2)CCN3C=O)cc(OC)c1OC [Example 2]
74
